# target_under_test: human D2R/β-arrestin (Homo sapiens (Human), UniProt P14416)
# Sequence (P14416 whole entry): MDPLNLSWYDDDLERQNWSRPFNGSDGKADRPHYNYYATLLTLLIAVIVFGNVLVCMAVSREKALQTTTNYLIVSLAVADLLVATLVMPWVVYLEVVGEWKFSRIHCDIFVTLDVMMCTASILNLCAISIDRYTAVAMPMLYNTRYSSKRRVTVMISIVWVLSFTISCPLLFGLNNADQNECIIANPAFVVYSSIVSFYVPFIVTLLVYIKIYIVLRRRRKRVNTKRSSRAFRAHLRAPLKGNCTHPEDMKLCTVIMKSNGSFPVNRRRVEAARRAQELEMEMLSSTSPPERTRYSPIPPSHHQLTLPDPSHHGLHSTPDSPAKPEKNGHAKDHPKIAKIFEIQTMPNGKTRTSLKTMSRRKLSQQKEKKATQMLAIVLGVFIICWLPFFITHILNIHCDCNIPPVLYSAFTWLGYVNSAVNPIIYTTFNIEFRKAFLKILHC
# test_summary: cell-based
# test_settings: cAMP Antagonist, CHO-K1 cells expressing human D2R/β-arrestin; antagonist mode, 2.5 μM forskolin and 2.7 nM quinpirole
measure_name: IC50

Reference set (4 entries):
- molecule: "CC1(Oc2ccc(Cl)cc2)CCCN(CCOc2ccccc2Cl)C1 (stereo not shown)"
  endpoint_result: "< 0.1 µM"
- molecule: "CC1(O)CCN(CCOc2ccccc2C(F)(F)F)C1 (stereo not shown)"
  endpoint_result: "1 to 10 µM"
- molecule: "CC1(C(=O)NC2CC2)CCN(CC2COc3ccccc3O2)CC1 (stereo not shown) [Compound 203]"
  endpoint_result: "1 to 10 µM"
- molecule: "CC1(Oc2ccc(Cl)cc2)CCN(CCOc2cccc(F)c2C(F)(F)F)CC1"
  endpoint_result: "> 30 µM"

Now look at this one.
Form field: reported IC50 of CC1(C(=O)Nc2ccccc2)CCN(CC2COc3ccccc3O2)CC1 (single isomer, unassigned) [Compound 204b] 0.1 to 1 µM

* * *

# target_under_test: human D2R/β-arrestin (Homo sapiens (Human), UniProt P14416)
# test_summary: Gi/cAMP agonist assay (Lance Ultra cAMP, forskolin)
# Type: cell-based
# test_settings: CHO-K1 cells expressing human D2R/β-arrestin; agonist mode, 2.5 μM forskolin
pEC50: −log10 of the molar value.
measure_name: pEC50

Reference set (8 entries):
- molecule: "CC1(Oc2ccccc2)CCN(CCCc2ccccc2C(F)(F)F)CC1 [Compound 118]"
  pEC50: "> 7.00"
- molecule: "CC1(Oc2ccc(Cl)cc2)CCN(CCOc2ccc3ccc(=O)[nH]c3c2)C1 (stereo not drawn) [Compound 25]"
  pEC50: "< 4.52"
- molecule: "CC1(Oc2ccc(Cl)cc2)CCCN(CCOc2ccccc2F)C1 (stereo not drawn) [Example 98]"
  pEC50: "< 4.52"
- molecule: "CC1(Oc2ccc(Cl)cc2)CCN(CCOc2ccccc2C(F)(F)F)C1 (stereo not drawn) [Compound 8]"
  pEC50: "< 4.52"
- molecule: "CC1(Oc2ccccc2)CCN(CCOc2ccc(C(F)(F)F)cc2)CC1 [Example 68]"
  pEC50: "> 7.00"
- molecule: "CC1(Oc2ccccc2)CCN(CCOc2ccccc2C(F)(F)F)CC1 [Example 91]"
  pEC50: "> 7.00"
- molecule: "CC1(C(=O)c2ccccc2)CCN(CCOc2ccccc2C(F)(F)F)CC1 [Example 106]"
  pEC50: "< 4.52"
- molecule: "CC1(Oc2ccc(Cl)cc2)CCN(CCOc2cccnc2)C1 (stereo not drawn) [Compound 12]"
  pEC50: "> 7.00"

Now look at this one.
Form field: reported pEC50 of CNC(=O)C1(C)CCN(CCOc2ccccc2C(F)(F)F)CC1 [Compound 198] < 4.52

* * *

Measured pIC50 accompanies every entry in the list below.
# target_under_test: human D2R/β-arrestin (Homo sapiens (Human), UniProt P14416)
# test_summary: cell-based
# test_settings: cAMP Antagonist
pIC50: −log10 of the molar value.

Reference set (2 entries):
- compound: "CN(c1ccccc1)C1(C)CCN(CCOc2ccccc2C(F)(F)F)CC1"
  endpoint_result: "< 4.52"
- compound: "CN(C1CCCCC1)C1(C)CCN(CCOc2ccccc2C(F)(F)F)CC1"
  endpoint_result: "5.00 to 6.00"

Now look at this one.
Form field: reported pIC50 of CC1(Oc2ccccc2)CC2CCC(C1)N2CCOc1ccccc1C(F)(F)F (stereo not drawn) 5.00 to 6.00

* * *

# target_under_test: human D2R/β-arrestin (Homo sapiens (Human), UniProt P14416)
# test_summary: β-arrestin agonist assay (PathHunter)
# Format: cell-based
# test_settings: CHO-K1 cells expressing human D2R/β-arrestin; agonist mode
measure_name: EC50

Reference set (8 entries):
- compound: "CC1(Oc2ccc(Cl)cc2)CCN(CCOc2ccc3cnccc3c2)C1 (stereo not drawn) [Compound 33]"
  EC50: "> 30 µM"
- compound: "CC1(NC(=O)C(F)(F)F)CCN(C[C@H]2COc3ccccc3O2)CC1 [Compound 212]"
  EC50: "1 to 10 µM"
- compound: "CC1(Oc2ccc(Cl)cc2)CCN(CCOc2cccc(Cl)c2)C1 (stereo not drawn) [Compound 10]"
  EC50: "> 30 µM"
- compound: "CC1(Oc2cccc(C(F)(F)F)c2)CCN(CCOc2ccccc2Cl)C1 (stereo not drawn) [Example 65]"
  EC50: "> 30 µM"
- compound: "CC1(O)CCN(CCOc2ccccc2C(F)(F)F)C1 (stereo not drawn) [Compound 139]"
  EC50: "> 30 µM"
- compound: "CC1(Oc2ccc(Cl)cc2)CCN(CCOc2cccnc2C(F)(F)F)CC1 [Compound 163]"
  EC50: "1 to 10 µM"
- compound: "FC(F)(F)c1ccccc1OCCN1CCC2(CC1)CC2c1ccc(Cl)cc1 (single isomer, unassigned) [Compound 216a]"
  EC50: "> 30 µM"
- compound: "CC1(Oc2ccc(Cl)cc2)CCN(CCCCOc2ccccc2)CC1 [Compound 120]"
  EC50: "> 30 µM"

Form field: reported EC50 of CC1(Oc2ccccc2Cl)CCN(CCOc2ccccc2C(F)(F)F)CC1 [Example 104] > 30 µM

* * *

# target_under_test: human D2R/β-arrestin (Homo sapiens (Human))
# test_summary: Gi/cAMP agonist assay (Lance Ultra cAMP, forskolin)
# Assay type: cell-based
# test_settings: CHO-K1 cells expressing human D2R/β-arrestin; agonist mode, 2.5 μM forskolin
pEC50: −log10 of the molar value.
measure_name: pEC50

- compound: "CC1(Oc2ccc(Cl)cc2)CCN(CCOc2ccc3ncccc3c2)C1 (stereo not drawn)"
  pEC50: "6.00 to 7.00"
- compound: "Clc1ccc(N2CCCC23CCN(CC2COc4ccccc4O2)CC3)cc1 (stereo not drawn)"
  pEC50: "< 4.52"
- compound: "Cc1cccc(OCCN2CCC(C)(Oc3ccc(Cl)cc3)C2)c1 (stereo not drawn)"
  pEC50: "> 7.00"
- compound: "CC1(Oc2ccc(Cl)cc2)CCN(CCCCOc2ccccc2)CC1"
  pEC50: "5.00 to 6.00"
- compound: "CC1CC(C)(Oc2ccccc2)CC(C)N1CCOc1ccccc1C(F)(F)F (stereo not drawn)"
  pEC50: "< 4.52"
- compound: "CC1(Oc2ccc(Cl)cc2)CCN(CCOc2ccc(F)cc2C(F)(F)F)CC1"
  pEC50: "6.00 to 7.00"

Form field: reported pEC50 of FC(F)(F)c1ccccc1OCCN1CCC2(CC1)Cc1ccccc1O2 < 4.52

Record: CC1(Oc2ccc(Cl)cc2)CCN(CCOc2ccc(C(F)(F)F)c(O)c2)CC1 5.00 to 6.00

Record: CC1(Oc2ccccc2)CCN(CCOc2ccccc2Cl)CC1 > 7.00

Record: C#CC1(O)CCN(CCOc2ccccc2C(F)(F)F)CC1 [Compound 302, reference compound] < 4.52

Record: CC1(O)CCN(CCOc2ccccc2C(F)(F)F)CC1 < 4.52

* * *

# test_summary: Pharmacokinetic and brain distribution study in mice
# Assay type: in vivo
# test_settings: mouse, ip; plasma; single intraperitoneal dose 30 mg/kg, male C57BL/6 mice
measure_name: Cmax (nM)
Reply with just the number (in nM).

Reference set (2 entries):
- item_smiles: "CC1(Oc2ccc(Cl)cc2)CCN(CCOc2ccccc2C(F)(F)F)CC1"
  measure_unit: "nM"
  endpoint_result: 1440
- item_smiles: "CC1(Oc2ccc(Cl)cc2)CCN(CCOc2ccc(C(F)(F)F)cc2)CC1"
  measure_unit: "nM"
  endpoint_result: 19800

Form field: reported Cmax of CC1(Oc2ccc(Cl)cc2)CCN(CCOc2ccc(F)cc2C(F)(F)F)CC1 2470

* * *

# target_under_test: human D2R/β-arrestin (Homo sapiens (Human))
# test_summary: cell-based
# test_settings: β-arrestin Antagonist, CHO-K1 cells expressing human D2R/β-arrestin; antagonist mode, quinpirole 130 nM
Measured IC50 accompanies every entry in the list below.

Reference set (4 entries):
- compound: "CC1(Oc2ccc(Cl)cc2)CCN(CCOc2ccncc2C(F)(F)F)CC1"
  target_under_test: "human D2R/β-arrestin (Homo sapiens (Human))"
  endpoint_result: "1000 to 10000 nM"
- compound: "CN(C)C(=O)C1(C)CCN(C[C@H]2COc3ccccc3O2)CC1"
  target_under_test: "human D2R/β-arrestin (Homo sapiens (Human))"
  endpoint_result: "100 to 1000 nM"
- compound: "CC1(Oc2ccc(Cl)cc2)CCN(CCOc2cccc(F)c2)C1 (centres unmarked)"
  target_under_test: "human D2R/β-arrestin (Homo sapiens (Human))"
  endpoint_result: "1000 to 10000 nM"
- compound: "CC1(Oc2ccc(Cl)cc2)CCN(CCOc2cccc(-c3ccccc3)c2)C1 (centres unmarked)"
  target_under_test: "human D2R/β-arrestin (Homo sapiens (Human))"
  endpoint_result: "1000 to 10000 nM"

Now look at this one.
Write down the reported IC50 of OCC1(Cc2ccc(Cl)cc2)CCN(CCOc2ccccc2C(F)(F)F)CC1 , test system: human D2R/β-arrestin (Homo sapiens (Human)). 1000 to 10000 nM

The reported measurements were obtained from patent US11498896B2.
